measurementDescription: in vivo
measurementSetup: female, Wistar, rat, serum, po, 500 mg/kg, Cmax, parent compound
Reported Cmax values are given for each entry in this list.
valueType: Cmax (ng/mL)

CCCOC(=O)c1ccc(O)cc1 [Propyl paraben, Propyl 4-hydroxybenzoate]	1390
COC(=O)c1ccc(O)cc1 [Methyl paraben, Methyl 4-hydroxybenzoate]	21200
CCOC(=O)c1ccc(O)cc1 [Ethyl paraben, Ethyl 4-hydroxybenzoate]	5930

----------
measurementDescription: in vivo
measurementSetup: parent compound; 1000 mg/kg; male
valueType: Clast (ng/mL)

COC(=O)c1ccc(O)cc1 [Methyl paraben, Methyl 4-hydroxybenzoate]	122
CCOC(=O)c1ccc(O)cc1 [Ethyl paraben, Ethyl 4-hydroxybenzoate]	33.3
CCCOC(=O)c1ccc(O)cc1 [Propyl paraben, Propyl 4-hydroxybenzoate]	14.3
CCCCOC(=O)c1ccc(O)cc1 [Butyl paraben, Butyl 4-hydroxybenzoate]	18.4
